Give measured composite z-score for each item. Keep answers brief.
Target: Calmodulin-1 (Homo sapiens) (UniProt P0DP23)
Experiment: CALM1 binders on microarrays, EGTA buffer, profiling panel, biochemical, small-molecule microarray, Cy5-labelled CALM1 (AID 1111);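 further: labelled calmodulin applied in Tris saline Tween buffer holding calcium plus EGTA and DTT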
Settings: Cy5-CALM1 binding fluorescence, higher = more signal
Give a plain numeric answer without units written out.

Q: Look up composite z-score of CCCc1cc2c(n1Cc1cc(F)cc(F)c1)C(C)C1CN(C(=O)c3ccccc3)C(C)(C(=O)OC)C21 (centres undefined) and report it.
A: 2.31

Q: Look up composite z-score of `CN(C)CCCCCCNC(=O)[C@H]1C[C@H]2C(=O)N3CCC[C@H]3C(=O)N2[C@H]1c1ccc(O)cc1` and report it.
A: -1.17

Q: Look up composite z-score of `CCc1cccc(NC(=O)O[C@H]2[C@H](OC(=O)Nc3ccccc3-c3ccccc3)[C@@H](OC(=O)Nc3ccccc3-c3ccccc3)[C@@H](OC)O[C@@H]2CO)c1` and report it.
A: 1.71

Q: Look up composite z-score of `CCCCCCc1nc(-c2cc(C)c(OC)c(C)c2)cc2c1[Si](C(C)C)(C(C)C)OC2` and report it.
A: -0.268

---

Experiment: compound binding in COS7 lysate, probe aLAP1, primary screen, cell lysate, small-molecule microarray (AID 1124);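 further: lysate comes from COS7 cells expressing LAP1 and is applied at 0.3 µg/mL; score merges spot fluorescence near 667 nm with signal-to-noise over triplicate slides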
Details: probe aLAP1, fluorescence, higher = more signal
PROPERTY MEASURED: composite z-score
Give a plain numeric answer without units written out.

Q: Look up composite z-score of `O=C(NC1CC1)[C@@H]1c2ccccc2C(=O)N(Cc2ccccc2Cl)[C@H]1c1ccc(CO)cc1` and report it.
A: 0.108

Q: Look up composite z-score of `CCCC[C@@H]1C[C@H]1[C@@H](NC(=O)c1ccccc1)c1ccc(C(=O)OC)cc1` and report it.
A: -0.156

Q: Look up composite z-score of OCCCC1=CC(c2cccs2)N(Cc2cc3c(cc2Br)OCO3)CC1 (stereo not drawn) and report it.
A: 0.242

Q: Look up composite z-score of `Cc1ccc(S[C@]2(C(=O)NCCCN(C)C)CC(=O)N(Cc3cc(C(F)(F)F)cc(C(F)(F)F)c3)[C@@H]2c2ccc(CO)cc2)cc1` and report it.
A: 0.357

Q: Look up composite z-score of `C=C(/C(=C/C[C@H](OC(C)=O)c1ccc(CO)o1)c1cc(C(=O)OC)ccc1OC)C(C)C` and report it.
A: -0.185

Q: Look up composite z-score of NC(=O)N1C(=O)C2C(C1=O)C1C=C(c3ccc(CO)cc3)C2C(c2cccs2)N1Cc1cccc(OC(F)(F)F)c1 (stereo not drawn) and report it.
A: 0.798

Q: Look up composite z-score of `CCCC#C[Si](O[C@H](CC)c1cn(Cc2cccc(Cl)c2)nn1)(C(C)C)C(C)C` and report it.
A: 0.249

Q: Look up composite z-score of `COc1ccc(CCNC(=O)[C@@]2(Sc3ccc(C)cc3)CC(=O)N(C(C)C)[C@@H]2c2ccc(CO)cc2I)cc1` and report it.
A: 0.648

---

Test system: Sam68 (KHDRBS1)
Assay: Sam68 small-molecule binders, primary screen, biochemical, small-molecule microarray, 635 nm fluorescence (AID 1125);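 further: score merges 667 nm channel intensity with signal to noise over triplicate slides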
Conditions: small-molecule microarray binding, higher = more signal
Give measured composite z-score for each item. Keep answers brief.
Give a plain numeric answer without units written out.

Q: Enter measured composite z-score, system Sam68 (KHDRBS1), for the molecule shown: `COC(=O)[C@@]1(Cc2ccc(F)cc2)[C@H]2c3cc(C(=O)N(C)C)n(Cc4cc(F)c(F)c(F)c4)c3C[C@H]2CN1C(=O)c1ccccc1`
A: 1.13

Q: Enter measured composite z-score, system Sam68 (KHDRBS1), for the molecule shown: `COC(=O)[C@]1(CCC(=O)OC(C)(C)C)N=C(c2ccc(OCCCO)cc2)O[C@@H]1c1ccccc1CN=[N+]=[N-]`
A: 0.866

Q: Enter measured composite z-score, system Sam68 (KHDRBS1), for the molecule shown: `CC(C)C(=C=CC[C@@H](O)c1ccc(OCCO)cc1)C[C@@H](O)COCc1ccccc1`
A: 1.19

Q: Enter measured composite z-score, system Sam68 (KHDRBS1), for the molecule shown: `C=C(CC1([C@@H](NP(=O)(c2ccccc2)c2ccccc2)[C@H]2C[C@@H]2CCCC)CC1)c1ccccc1`
A: 1.14

Q: Enter measured composite z-score, system Sam68 (KHDRBS1), for the molecule shown: CC1(C)C2C=C(C(O)C3C=CC4C(=O)NC(=O)C4N3Nc3ccc(Cl)cc3Cl)C[C@@H]1C2 (some centres undefined)
A: 0.337

Q: Enter measured composite z-score, system Sam68 (KHDRBS1), for the molecule shown: O=C1C2C=CC(C(O)c3cccc4ccccc34)N(Nc3ccccc3F)C2C(=O)N1c1ccccc1 (centres undefined)
A: 1.29

Q: Enter measured composite z-score, system Sam68 (KHDRBS1), for the molecule shown: `COCCOC(=O)N1C(=O)[C@@]2(c3cc(C#Cc4ccc(OC)cc4)ccc31)[C@H](c1ccc(O)cc1)N1[C@H](c3ccccc3)[C@H](c3ccccc3)OC(=O)[C@H]1[C@@H]2C(=O)N1CCc2cc(OC)c(OC)cc2C1`
A: 1.28

Q: Enter measured composite z-score, system Sam68 (KHDRBS1), for the molecule shown: `COC(=O)C(CC#Cc1ccc2c(c1)[C@]1(C(=O)N2)[C@H](C(=O)Nc2nc3ccccc3s2)[C@H]2C(=O)O[C@H](c3ccccc3)[C@H](c3ccccc3)N2[C@@H]1c1ccc(O)cc1)C(=O)OC`
A: 1.3

Q: Enter measured composite z-score, system Sam68 (KHDRBS1), for the molecule shown: `CCCC[C@H]1OB(O)C[C@H]2C1=C(COC)C[C@H]1C(=O)N(C)C(=O)[C@H]12`
A: 0.462

Q: Enter measured composite z-score, system Sam68 (KHDRBS1), for the molecule shown: `CN(C)CCCC[C@@H]1NC(=O)[C@@H]2C[C@H](C(=O)NCCCCCCN)[C@H](c3cccc(OCCO)c3)N2C1=O`
A: 1.3

Q: Enter measured composite z-score, system Sam68 (KHDRBS1), for the molecule shown: COc1cc(C(O)C2C=CC3C(=O)NC(=O)C3N2Nc2ccccn2)cc(OC)c1OC (centres undefined)
A: 0.466

Q: Enter measured composite z-score, system Sam68 (KHDRBS1), for the molecule shown: `CC(=O)NCCCC[C@@H]1NC(=O)[C@@H]2C[C@H](C(=O)NCCCCCNC(=O)CS)[C@H](c3cccc(OCCO)c3)N2C1=O`
A: 0.254

Q: Enter measured composite z-score, system Sam68 (KHDRBS1), for the molecule shown: `CC(C)OC(=O)C=C1C[C@@H](c2ccccn2)O[C@@H](c2ccccn2)O1`
A: 0.216

Q: Enter measured composite z-score, system Sam68 (KHDRBS1), for the molecule shown: `CCCC[C@@H]1C[C@H]1[C@@H](NC(=O)c1ccco1)c1ccc(-c2ccccc2)cc1`
A: 0.325

Q: Enter measured composite z-score, system Sam68 (KHDRBS1), for the molecule shown: `COc1cc(COC(C)=O)ccc1OC(C)=O`
A: 0.624

Q: Enter measured composite z-score, system Sam68 (KHDRBS1), for the molecule shown: `Cc1ccc(S[C@]2(C(=O)NCCCN(C)C)CC(=O)N(Cc3cc(C(F)(F)F)cc(C(F)(F)F)c3)[C@@H]2c2ccc(CO)cc2)cc1`
A: -0.427

Q: Enter measured composite z-score, system Sam68 (KHDRBS1), for the molecule shown: CC1(C)[C@@H]2CC(C(O)C3C=CC4C(=O)N(c5ccccc5)C(=O)C4N3Nc3ccc([N+](=O)[O-])cc3)=C[C@H]1C2 (some centres undefined)
A: 1.33

Q: Enter measured composite z-score, system Sam68 (KHDRBS1), for the molecule shown: CC(C)C(CO)N1C(=O)[C@@H]2C3C(=O)OCCC/C=C\[C@H]3OC23C=CCN(CCN2CCOCC2)C(=O)[C@@H]13 (some centres undefined)
A: -0.362

Q: Enter measured composite z-score, system Sam68 (KHDRBS1), for the molecule shown: `[N-]=[N+]=Nc1ccccc1[C@@H]1OC(c2ccc(OCCCO)cc2)=N[C@]1(CCS(=O)(=O)c1ccccc1)C(N)=O`
A: 1.29

Q: Enter measured composite z-score, system Sam68 (KHDRBS1), for the molecule shown: `COc1ccc(C#Cc2ccc3c(c2)[C@]2(C(=O)N3)[C@H](C(=O)NC[C@H](O)c3ccccc3)[C@H]3C(=O)O[C@H](c4ccccc4)[C@H](c4ccccc4)N3[C@@H]2c2ccc(O)cc2)cc1`
A: 1.29

Q: Enter measured composite z-score, system Sam68 (KHDRBS1), for the molecule shown: `COCCOC(=O)N1C(=O)[C@@]2(c3cc(C#CCNC(N)=O)ccc31)[C@H](C(=O)Nc1nc3ccccc3s1)[C@H]1C(=O)O[C@H](c3ccccc3)[C@H](c3ccccc3)N1[C@@H]2c1ccc(OCCO)cc1`
A: 1.1

Q: Enter measured composite z-score, system Sam68 (KHDRBS1), for the molecule shown: `C=CCNC(=O)[C@@H]1[C@H]2C(=O)O[C@H](c3ccccc3)[C@H](c3ccccc3)N2[C@H](c2ccc(O)cc2)[C@@]12C(=O)Nc1ccc(C#CCNC(N)=O)cc12`
A: 0.512

Q: Enter measured composite z-score, system Sam68 (KHDRBS1), for the molecule shown: `Oc1ccc2cc[n+](Cc3sc4ccccc4c3Cl)cc2c1`
A: -0.702

Q: Enter measured composite z-score, system Sam68 (KHDRBS1), for the molecule shown: `C[C@@]1([C@@H](NC(=O)c2ccc(-c3ccccc3)cc2)c2ccc(Cl)cc2)C[C@H]1C1CCCCC1`
A: 1.29

Q: Enter measured composite z-score, system Sam68 (KHDRBS1), for the molecule shown: `CC(C)N1C(=O)c2ccccc2[C@](C)(C(=O)NCCN2CCOCC2)[C@@H]1c1ccc(CO)cc1`
A: 0.359

Q: Enter measured composite z-score, system Sam68 (KHDRBS1), for the molecule shown: `O=C(N1CCCCC1)[C@]1(Cc2ccccc2)N=C(c2ccc(OCCCO)cc2)O[C@@H]1c1ccccc1`
A: 1.18

Q: Enter measured composite z-score, system Sam68 (KHDRBS1), for the molecule shown: C=CCC(OC(C)=O)[C@@H]1[C@@H](N(Cc2ccc(-c3ccccc3)cc2)C(=O)c2ccc(-c3ccccc3)cc2)c2cc(OCCCO)ccc2N1C(=O)Cc1ccc2ccccc2c1 (some centres undefined)
A: 0.621

Q: Enter measured composite z-score, system Sam68 (KHDRBS1), for the molecule shown: `CCc1cccc(NC(=O)O[C@H]2[C@H](OC(=O)Nc3ccccc3-c3ccccc3)[C@@H](OC(=O)Nc3ccccc3-c3ccccc3)[C@@H](OC)O[C@@H]2CO)c1`
A: 1.3

Q: Enter measured composite z-score, system Sam68 (KHDRBS1), for the molecule shown: O=C1NC(=O)C2C1C=CC(C(O)c1cc(C(F)(F)F)cc(C(F)(F)F)c1)N2Nc1ccccn1 (centres undefined)
A: 0.079
